Target: SARS-CoV-2 S protein RBD RBD (Severe acute respiratory syndrome coronavirus 2), P0DTC2
Conditions: modification not given
pKd: −log10 of the molar value.
quantity_kind: pKd

binder	quantitative_readout
NCGDKWSAFLKEQSTLAQMYPLQE [900h2 (64-87)]	5.77

Attribution: paper PMC9798946
